We begin with a simple list: items and their reported IC50.
TARGET_DESC: Epidermal growth factor receptor (Homo sapiens)
Sequence (P00533 whole entry, the tested form may be a part): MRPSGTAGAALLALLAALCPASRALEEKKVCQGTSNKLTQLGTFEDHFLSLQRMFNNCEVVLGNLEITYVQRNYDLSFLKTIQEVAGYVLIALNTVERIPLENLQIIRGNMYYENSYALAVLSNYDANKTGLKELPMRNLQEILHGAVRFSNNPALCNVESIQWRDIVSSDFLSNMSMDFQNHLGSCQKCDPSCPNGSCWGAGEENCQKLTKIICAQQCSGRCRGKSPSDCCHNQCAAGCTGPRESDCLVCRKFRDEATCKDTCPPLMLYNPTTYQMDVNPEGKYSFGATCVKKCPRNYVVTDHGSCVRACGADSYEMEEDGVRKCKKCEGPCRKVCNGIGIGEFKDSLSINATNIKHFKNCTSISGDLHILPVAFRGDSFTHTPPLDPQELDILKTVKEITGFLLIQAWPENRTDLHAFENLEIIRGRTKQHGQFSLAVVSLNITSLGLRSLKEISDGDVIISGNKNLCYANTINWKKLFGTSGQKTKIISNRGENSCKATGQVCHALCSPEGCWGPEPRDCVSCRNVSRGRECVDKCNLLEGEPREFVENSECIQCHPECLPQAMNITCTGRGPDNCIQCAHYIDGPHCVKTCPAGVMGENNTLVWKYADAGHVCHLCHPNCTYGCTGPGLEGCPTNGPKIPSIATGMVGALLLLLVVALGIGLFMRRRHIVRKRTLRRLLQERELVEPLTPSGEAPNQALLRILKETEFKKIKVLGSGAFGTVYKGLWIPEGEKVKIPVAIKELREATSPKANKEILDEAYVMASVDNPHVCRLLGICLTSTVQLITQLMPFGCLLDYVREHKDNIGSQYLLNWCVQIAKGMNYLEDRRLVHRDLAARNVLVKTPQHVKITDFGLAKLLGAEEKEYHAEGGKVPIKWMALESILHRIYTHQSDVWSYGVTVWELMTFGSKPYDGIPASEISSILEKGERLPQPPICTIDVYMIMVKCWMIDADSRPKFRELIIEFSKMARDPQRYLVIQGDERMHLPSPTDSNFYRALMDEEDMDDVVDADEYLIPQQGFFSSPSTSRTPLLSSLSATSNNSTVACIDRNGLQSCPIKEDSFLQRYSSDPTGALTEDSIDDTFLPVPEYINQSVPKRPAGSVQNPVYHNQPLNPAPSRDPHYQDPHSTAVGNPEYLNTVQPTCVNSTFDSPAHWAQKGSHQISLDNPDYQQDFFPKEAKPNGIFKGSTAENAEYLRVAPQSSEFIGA
PROTOCOL_TEXT: Inhibition of N-terminal GST-fused human EGFR (His672 to Ala1210 residues) expressed in baculovirus expression system using biotinylated PTP1B at Tyr66 as substrate preincubated for 5 mins followed by substrate addition measured after 30 mins by DELFIA

See these solved cases before continuing.
C[C@@H](Nc1ncnc2[nH]c(-c3ccc(NCc4ccc(/C=C/C(=O)NO)cc4)cc3)cc12)c1ccccc1	≤ 100 nM
O=C(CCCCCN1CCN(Cc2ccc(-c3cc4c(NCc5ccccc5)ncnc4[nH]3)cc2)CC1)NO	100 to 1000 nM
C[C@@H](Nc1ncnc2[nH]c(-c3ccc(NCc4ccc(C(=O)NO)cc4)cc3)cc12)c1ccccc1	≤ 100 nM

Could you now consider this next molecule?
For the molecule C[C@@H](Nc1ncnc2[nH]c(-c3ccc(NCCCCCC(=O)NO)cc3)cc12)c1ccccc1 , what IC50 is on record?
≤ 100 nM

----------
TARGET_DESC: Receptor tyrosine-protein kinase erbB-2 (Homo sapiens)
Sequence (P04626 whole entry): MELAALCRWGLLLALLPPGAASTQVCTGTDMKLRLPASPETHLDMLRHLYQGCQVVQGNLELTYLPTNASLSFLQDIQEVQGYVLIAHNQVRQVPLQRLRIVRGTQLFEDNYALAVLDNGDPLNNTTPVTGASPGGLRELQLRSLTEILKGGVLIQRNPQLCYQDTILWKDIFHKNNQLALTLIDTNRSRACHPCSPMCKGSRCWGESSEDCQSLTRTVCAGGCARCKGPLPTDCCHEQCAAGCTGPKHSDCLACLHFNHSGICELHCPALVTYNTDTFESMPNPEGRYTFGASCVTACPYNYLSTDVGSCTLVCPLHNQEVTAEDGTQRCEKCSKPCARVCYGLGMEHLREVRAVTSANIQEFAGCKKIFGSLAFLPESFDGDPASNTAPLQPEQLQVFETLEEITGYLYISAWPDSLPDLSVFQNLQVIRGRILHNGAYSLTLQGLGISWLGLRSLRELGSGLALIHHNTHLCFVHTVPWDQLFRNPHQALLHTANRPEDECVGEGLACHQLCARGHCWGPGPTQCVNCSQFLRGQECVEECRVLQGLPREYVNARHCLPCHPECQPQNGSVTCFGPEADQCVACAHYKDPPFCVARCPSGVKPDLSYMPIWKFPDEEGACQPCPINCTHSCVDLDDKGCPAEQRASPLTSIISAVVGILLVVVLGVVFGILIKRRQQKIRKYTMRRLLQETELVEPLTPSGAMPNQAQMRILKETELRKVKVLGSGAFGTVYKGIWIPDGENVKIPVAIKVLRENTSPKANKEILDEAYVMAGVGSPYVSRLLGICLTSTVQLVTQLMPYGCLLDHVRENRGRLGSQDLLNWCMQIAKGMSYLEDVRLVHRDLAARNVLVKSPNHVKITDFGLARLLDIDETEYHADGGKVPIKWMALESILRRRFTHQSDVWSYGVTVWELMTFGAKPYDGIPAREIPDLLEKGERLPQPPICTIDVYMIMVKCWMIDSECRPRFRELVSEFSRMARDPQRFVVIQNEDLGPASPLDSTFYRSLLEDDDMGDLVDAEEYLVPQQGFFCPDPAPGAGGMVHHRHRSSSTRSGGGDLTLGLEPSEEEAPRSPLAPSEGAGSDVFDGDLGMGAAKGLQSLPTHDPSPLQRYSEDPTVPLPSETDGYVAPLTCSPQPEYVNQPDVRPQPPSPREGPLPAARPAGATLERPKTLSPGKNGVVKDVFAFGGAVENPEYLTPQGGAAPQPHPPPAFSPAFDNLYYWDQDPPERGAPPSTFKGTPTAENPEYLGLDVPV
PROTOCOL_TEXT: Inhibition of N-terminal GST-tagged human HER2 (Lys676 to Val1255 residues) expressed in baculovirus expression system using biotinylated FLT3 at Tyr589 as substrate preincubated for 5 mins followed by substrate addition measured after 30 mins by DELFIA method
PROPERTY_NAME: IC50

See these solved cases before continuing.
C[C@@H](Nc1ncnc2[nH]c(-c3ccc(CN4CCN(CCCC(=O)NO)CC4)cc3)cc12)c1ccccc1	≤ 0.1 µM
C[C@@H](Nc1ncnc2[nH]c(-c3ccc(C(=O)NCCNCCC(=O)NO)cc3)cc12)c1ccccc1	0.1 to 1 µM
C[C@@H](Nc1ncnc2[nH]c(-c3ccc(CNCCCCCCC(=O)NO)cc3)cc12)c1ccccc1	0.1 to 1 µM
C[C@@H](Nc1ncnc2[nH]c(-c3ccc(NC(=O)CCCCC(=O)NO)cc3)cc12)c1ccccc1	0.1 to 1 µM
C[C@@H](Nc1ncnc2[nH]c(-c3ccc(OCC(=O)NO)cc3)cc12)c1ccccc1	≤ 0.1 µM

For the molecule COc1cc2c(Nc3ccc(F)c(Cl)c3)ncnc2cc1OCCCCCCC(=O)NO , what IC50 is on record?
0.1 to 1 µM

For the molecule COCCOc1cc2ncnc(Nc3ccc(F)c(Cl)c3)c2cc1NC(=O)CCCCCCC(=O)NO , what IC50 is on record?
≤ 0.1 µM

For the molecule C[C@@H](Nc1ncnc2[nH]c(-c3ccc(CNCC(=O)NO)cc3)cc12)c1ccccc1 , what IC50 is on record?
1 to 10 µM

----------
We begin with a simple list: items and their reported pIC50.
TARGET_DESC: Mast/stem cell growth factor receptor Kit (Homo sapiens, UniProt P10721)
Sequence (P10721 whole entry): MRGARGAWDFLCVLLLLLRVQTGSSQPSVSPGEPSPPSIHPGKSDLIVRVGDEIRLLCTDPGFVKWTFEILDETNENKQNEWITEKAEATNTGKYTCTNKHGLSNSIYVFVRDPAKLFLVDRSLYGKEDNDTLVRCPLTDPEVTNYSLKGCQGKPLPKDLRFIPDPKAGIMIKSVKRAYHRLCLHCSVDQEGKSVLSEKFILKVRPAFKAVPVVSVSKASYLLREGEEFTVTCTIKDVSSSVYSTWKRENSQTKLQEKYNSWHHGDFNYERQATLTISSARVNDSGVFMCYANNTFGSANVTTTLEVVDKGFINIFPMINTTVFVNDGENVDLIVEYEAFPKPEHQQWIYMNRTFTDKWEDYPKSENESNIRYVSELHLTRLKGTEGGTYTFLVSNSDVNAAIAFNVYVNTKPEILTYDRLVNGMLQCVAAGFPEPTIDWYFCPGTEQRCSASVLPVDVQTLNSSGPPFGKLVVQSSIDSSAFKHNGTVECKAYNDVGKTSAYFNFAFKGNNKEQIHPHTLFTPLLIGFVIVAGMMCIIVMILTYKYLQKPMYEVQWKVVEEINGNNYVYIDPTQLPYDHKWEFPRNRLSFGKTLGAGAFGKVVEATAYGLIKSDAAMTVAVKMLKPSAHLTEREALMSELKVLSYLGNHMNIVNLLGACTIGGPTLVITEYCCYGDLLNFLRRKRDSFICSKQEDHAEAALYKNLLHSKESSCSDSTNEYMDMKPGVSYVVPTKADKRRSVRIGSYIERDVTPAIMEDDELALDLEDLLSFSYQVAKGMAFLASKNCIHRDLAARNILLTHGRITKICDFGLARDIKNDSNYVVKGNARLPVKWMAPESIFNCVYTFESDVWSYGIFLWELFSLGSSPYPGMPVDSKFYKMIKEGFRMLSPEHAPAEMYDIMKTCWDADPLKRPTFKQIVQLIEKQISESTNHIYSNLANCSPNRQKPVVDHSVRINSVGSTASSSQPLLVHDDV
PROTOCOL_TEXT: Inhibition of human N-terminal GST-tagged human c-Kit (Thr544 to Val976 residues) expressed in baculovirus expression system assessed as decrease in biotinylated KDR phosphorylation at Tyr996 preincubated for 5 mins followed by substrate addition measured after 30 mins by DELFIA method
pIC50: −log10 of the molar value.

For the compound O=C(CCCCCCCNC(=O)c1cc(Oc2ccc(NC(=O)Nc3ccc(Cl)c(C(F)(F)F)c3)cc2)ccn1)NO , what pIC50 is on record?
≥ 7.00

----------
TARGET_DESC: UniProt:P00533
PROTOCOL_TEXT: Inhibition of N-terminal GST-fused human EGFR (His672 to Ala1210 residues) expressed in baculovirus expression system using biotinylated PTP1B at Tyr66 as substrate preincubated for 5 mins followed by substrate addition measured after 30 mins by DELFIA
pIC50: −log10 of the molar value.
We begin with a simple list: items and their reported pIC50.

C[C@@H](Nc1ncnc2[nH]c(-c3ccc(CN4CCN(CCCCCCC(=O)NO)CC4)cc3)cc12)c1ccccc1	≥ 7.00

Please tell me: pIC50 of C[C@@H](Nc1ncnc2[nH]c(-c3ccc(OCCCC(=O)NO)cc3)cc12)c1ccccc1 , system UniProt:P00533?
≥ 7.00

Please tell me: pIC50 of COc1cc2ncnc(Nc3ccc(F)c(Cl)c3)c2cc1OCCCCCCC(=O)NO , system UniProt:P00533?
8.51

Please tell me: pIC50 of C[C@@H](Nc1ncnc2[nH]c(-c3ccc(CNCc4ccc(/C=C/C(=O)NO)cc4)cc3)cc12)c1ccccc1 , system UniProt:P00533?
≤ 5.00

Please tell me: pIC50 of O=C(CCCCCCOc1ccc(-c2cc3c(NCc4ccccc4)ncnc3[nH]2)cc1)NO , system UniProt:P00533?
6.00 to 7.00
